test system: Pseudomonas aeruginosa; experiment: Antibacterial activity against Pseudomonas aeruginosa 114228 assessed as reduction in bacterial growth incubated for 18 hrs by broth microdilution assay; type: functional
As shown below, each of these compounds has a reported MIC value.
Your answer is read as µg/mL, so omit the unit and give the number.

NC[C@H]1O[C@H](O[C@H]2[C@H](O)[C@@H](O[C@H]3O[C@H](CO)[C@@H](O)[C@H](N)[C@H]3O)[C@H](N)C[C@@H]2N)[C@H](N)C[C@@H]1O [TOBRAMYCIN]	8

Continue with the compound presented below.
Request: Name the recorded MIC of the compound listed here: CO[C@H]1/C=C/O[C@@]2(C)Oc3c(C)c(O)c4c(O)c(c(/C=N/N5CCN(C)CC5)c(O)c4c3C2=O)NC(=O)/C(C)=C\C=C\[C@H](C)[C@H](O)[C@@H](C)[C@@H](O)[C@@H](C)[C@H](OC(C)=O)[C@@H]1C [RIFAMPIN]
Result: 16

###

As shown below, each of these molecules has a reported fractional inhibitory concentration index (FICI) value.
test system: Pseudomonas aeruginosa; experiment: Antibacterial activity against Pseudomonas aeruginosa 100036 assessed as fractional inhibitory concentration index in presence of chloramphenicol incubated for 18 hrs by broth microdilution assay; type: functional
Respond numerically, and do not add a unit to the figure.

CO[C@H]1/C=C/O[C@@]2(C)Oc3c(C)c(O)c4c(O)c(c(/C=N/N5CCN(Cc6cn(CCCCCCCCCCCCO[C@@H]7[C@@H](O[C@H]8O[C@H](CO)[C@@H](O)[C@H](N)[C@H]8O)[C@H](N)C[C@H](N)[C@H]7O[C@H]7O[C@H](CN)[C@@H](O)C[C@H]7N)nn6)CC5)c(O)c4c3C2=O)NC(=O)/C(C)=C\C=C\[C@H](C)[C@H](O)[C@@H](C)[C@@H](O)[C@@H](C)[C@H](OC(C)=O)[C@@H]1C.O=C(O)C(F)(F)F.O=C(O)C(F)(F)F.O=C(O)C(F)(F)F.O=C(O)C(F)(F)F.O=C(O)C(F)(F)F	0.067

Request: Check Pseudomonas aeruginosa data and give fractional inhibitory concentration index (FICI) for NC[C@H]1O[C@H](O[C@H]2[C@H](O)[C@@H](O[C@H]3O[C@H](CO)[C@@H](O)[C@H](N)[C@H]3O)[C@H](N)C[C@@H]2N)[C@H](N)C[C@@H]1O .
Result: 1.5

Request: Check Pseudomonas aeruginosa data and give fractional inhibitory concentration index (FICI) for CO[C@H]1/C=C/O[C@@]2(C)Oc3c(C)c(O)c4c(O)c(c(/C=N/N5CCN(C)CC5)c(O)c4c3C2=O)NC(=O)/C(C)=C\C=C\[C@H](C)[C@H](O)[C@@H](C)[C@@H](O)[C@@H](C)[C@H](OC(C)=O)[C@@H]1C .
Result: 1.5

Request: Check Pseudomonas aeruginosa data and give fractional inhibitory concentration index (FICI) for CO[C@H]1/C=C/O[C@@]2(C)Oc3c(C)c(O)c4c(O)c(c(/C=N/N5CCN(Cc6cn(CCCCCCO[C@@H]7[C@@H](O[C@H]8O[C@H](CO)[C@@H](O)[C@H](N)[C@H]8O)[C@H](N)C[C@H](N)[C@H]7O[C@H]7O[C@H](CN)[C@@H](O)C[C@H]7N)nn6)CC5)c(O)c4c3C2=O)NC(=O)/C(C)=C\C=C\[C@H](C)[C@H](O)[C@@H](C)[C@@H](O)[C@@H](C)[C@H](OC(C)=O)[C@@H]1C.Cl.Cl.Cl.Cl.Cl .
Result: 0.066

###

As shown below, each of these compounds has a reported MIC value.
tested on: Streptococcus pneumoniae; assay: Antibacterial activity against Streptococcus pneumoniae ATCC 49619 assessed as reduction in bacterial growth incubated for 18 hrs by broth microdilution assay; assay type: functional

CO[C@H]1/C=C/O[C@@]2(C)Oc3c(C)c(O)c4c(O)c(c(/C=N/N5CCN(C)CC5)c(O)c4c3C2=O)NC(=O)/C(C)=C\C=C\[C@H](C)[C@H](O)[C@@H](C)[C@@H](O)[C@@H](C)[C@H](OC(C)=O)[C@@H]1C	≤ 0.25 µg/mL
CO[C@H]1/C=C/O[C@@]2(C)Oc3c(C)c(O)c4c(O)c(c(/C=N/N5CCN(Cc6cn(CCCCCCCCCCCCO[C@@H]7[C@@H](O[C@H]8O[C@H](CO)[C@@H](O)[C@H](N)[C@H]8O)[C@H](N)C[C@H](N)[C@H]7O[C@H]7O[C@H](CN)[C@@H](O)C[C@H]7N)nn6)CC5)c(O)c4c3C2=O)NC(=O)/C(C)=C\C=C\[C@H](C)[C@H](O)[C@@H](C)[C@@H](O)[C@@H](C)[C@H](OC(C)=O)[C@@H]1C.O=C(O)C(F)(F)F.O=C(O)C(F)(F)F.O=C(O)C(F)(F)F.O=C(O)C(F)(F)F.O=C(O)C(F)(F)F	8 µg/mL
CO[C@H]1/C=C/O[C@@]2(C)Oc3c(C)c(O)c4c(O)c(c(/C=N/N5CCN(Cc6cn(CCCCO[C@@H]7[C@@H](O[C@H]8O[C@H](CO)[C@@H](O)[C@H](N)[C@H]8O)[C@H](N)C[C@H](N)[C@H]7O[C@H]7O[C@H](CN)[C@@H](O)C[C@H]7N)nn6)CC5)c(O)c4c3C2=O)NC(=O)/C(C)=C\C=C\[C@H](C)[C@H](O)[C@@H](C)[C@@H](O)[C@@H](C)[C@H](OC(C)=O)[C@@H]1C.O=C(O)C(F)(F)F.O=C(O)C(F)(F)F.O=C(O)C(F)(F)F.O=C(O)C(F)(F)F.O=C(O)C(F)(F)F	1 µg/mL

Continue with the compound presented below.
Request: Name the recorded MIC of the compound listed here: NC[C@H]1O[C@H](O[C@H]2[C@H](O)[C@@H](O[C@H]3O[C@H](CO)[C@@H](O)[C@H](N)[C@H]3O)[C@H](N)C[C@@H]2N)[C@H](N)C[C@@H]1O
Result: 2 µg/mL

###

assay: Cytotoxicity against human HepG2 cells assessed as cell viability at <10 uM incubated for 48 hrs prestoblue assay; type: cell-based; conditions: read-out: Activity
As shown below, each of these compounds has a reported viability at 48 h value.

Request: Name the recorded viability at 48 h of the compound listed here: CO[C@H]1/C=C/O[C@@]2(C)Oc3c(C)c(O)c4c(O)c(c(/C=N/N5CCN(Cc6cn(CCCCCCO[C@@H]7[C@@H](O[C@H]8O[C@H](CO)[C@@H](O)[C@H](N)[C@H]8O)[C@H](N)C[C@H](N)[C@H]7O[C@H]7O[C@H](CN)[C@@H](O)C[C@H]7N)nn6)CC5)c(O)c4c3C2=O)NC(=O)/C(C)=C\C=C\[C@H](C)[C@H](O)[C@@H](C)[C@@H](O)[C@@H](C)[C@H](OC(C)=O)[C@@H]1C.Cl.Cl.Cl.Cl.Cl
Result: > 90%

Request: Name the recorded viability at 48 h of the compound listed here: CO[C@H]1/C=C/O[C@@]2(C)Oc3c(C)c(O)c4c(O)c(c(/C=N/N5CCN(Cc6cn(CCCCO[C@@H]7[C@@H](O[C@H]8O[C@H](CO)[C@@H](O)[C@H](N)[C@H]8O)[C@H](N)C[C@H](N)[C@H]7O[C@H]7O[C@H](CN)[C@@H](O)C[C@H]7N)nn6)CC5)c(O)c4c3C2=O)NC(=O)/C(C)=C\C=C\[C@H](C)[C@H](O)[C@@H](C)[C@@H](O)[C@@H](C)[C@H](OC(C)=O)[C@@H]1C.O=C(O)C(F)(F)F.O=C(O)C(F)(F)F.O=C(O)C(F)(F)F.O=C(O)C(F)(F)F.O=C(O)C(F)(F)F
Result: > 90%

Request: Name the recorded viability at 48 h of the compound listed here: CO[C@H]1/C=C/O[C@@]2(C)Oc3c(C)c(O)c4c(O)c(c(/C=N/N5CCN(Cc6cn(CCCCCCCCCCCCO[C@@H]7[C@@H](O[C@H]8O[C@H](CO)[C@@H](O)[C@H](N)[C@H]8O)[C@H](N)C[C@H](N)[C@H]7O[C@H]7O[C@H](CN)[C@@H](O)C[C@H]7N)nn6)CC5)c(O)c4c3C2=O)NC(=O)/C(C)=C\C=C\[C@H](C)[C@H](O)[C@@H](C)[C@@H](O)[C@@H](C)[C@H](OC(C)=O)[C@@H]1C.O=C(O)C(F)(F)F.O=C(O)C(F)(F)F.O=C(O)C(F)(F)F.O=C(O)C(F)(F)F.O=C(O)C(F)(F)F
Result: > 90%

###

system: Pseudomonas aeruginosa; experiment: Antibacterial activity against Pseudomonas aeruginosa ATCC 27853 assessed as reduction in bacterial growth incubated for 18 hrs by broth microdilution assay; assay type: functional
Measure Name: MIC (µg/mL)
Your answer is read as µg/mL, so omit the unit and give the number.

CO[C@H]1/C=C/O[C@@]2(C)Oc3c(C)c(O)c4c(O)c(c(/C=N/N5CCN(C)CC5)c(O)c4c3C2=O)NC(=O)/C(C)=C\C=C\[C@H](C)[C@H](O)[C@@H](C)[C@@H](O)[C@@H](C)[C@H](OC(C)=O)[C@@H]1C	32

Request: Name the recorded MIC of the compound listed here: NC[C@H]1O[C@H](O[C@H]2[C@H](O)[C@@H](O[C@H]3O[C@H](CO)[C@@H](O)[C@H](N)[C@H]3O)[C@H](N)C[C@@H]2N)[C@H](N)C[C@@H]1O
Result: 1
